B1: RPAIN (parent)
chain: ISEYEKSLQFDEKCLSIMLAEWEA

# Variants of: B1
# Measurement protocol: protein stability index of a GFP-peptide fusion (GPS, HEK-293T) (PSI 1-6); higher = more stable;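 further: lentivirally expressed fusions sorted by FACS into six bins by GFP to DsRed ratio, PSI derived from sequencing read proportions per bin multiplied by bin number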
# Condition description: c terminus: a fixed tail appended
Provide the reported protein stability index of each item.
Give bare numbers.

Example variants with recorded protein stability index:
# Alteration, protein stability index
records = [
    ("Y4K", 2.1),
    ("E12A", 2.34),
    ("E12Q", 1.98),
    ("L15G", 3.62),
    ("S2C", 1.41),
]

# return protein stability index for each item in the list
1. F10S
2. E3K
3. S7I

OUT:
[3.08, 2.4, 1.6]

For each of the variants below, note its protein stability index.
1. S2F
2. Y4A
3. K6L
4. K13A
5. A24G
6. L8A
7. E12C

OUT:
1: 1.7; 2: 2.48; 3: 1.2; 4: 2.1; 5: 2.11; 6: 2.63; 7: 1.9

Give one value of protein stability index per listed variant.
1. A20H
2. S7L
3. A20R
4. E3L
5. W22V
6. E5S
7. A24Q
8. E12W

OUT:
1. 1.64
2. 1.44
3. 1.25
4. 1.54
5. 1.52
6. 1.82
7. 2.54
8. 1.85

Could you report protein stability index for every entry in the following list?
1. F10G
2. E3A
3. S7H
4. E23G

OUT:
2.81
2.31
2.7
4.39

These measurements were taken from the supplement of paper PMC10567573.
